Kindly state inhibition (INH) for each of the entries shown.
Test system: RAW264.7
ASSAY OVERVIEW: Inhibition of LPS-induced nitric oxide production in mouse RAW264.7 cells at 25 uM after 24 hrs by Griess reaction relative to control
Type: functional
Give bare numbers, in %.

The examples below pair each entry with its known result.
MOLECULE	MEASUREMENT KIND	EXPERIMENTAL VALUE
COC1=C[C@@H]2[C@@H]3Cc4c(-c5cc(OC)c(O)c6c5C[C@H]5[C@H]7C=C(OC)C(=O)C[C@@]67CCN5C)cc(OC)c(O)c4[C@]2(CCN3C)CC1=O (stereo in doubt; 1b)	inhibition (INH)	-1.3
COC1=C[C@@H]2[C@@H]3Cc4c(-c5cc(OC)c(O)c6c5C[C@@H]5NCC[C@]67CC(=O)C(OC)=C[C@H]57)cc(OC)c(O)c4[C@]2(CCN3)CC1=O (stereo in doubt; 3b)	inhibition (INH)	-11.6
COc1cc(-c2cc(OC)c(O)c3c2C[C@H]2[C@H]4C[C@@H](OC)[C@H](NS(=O)(=O)c5ccc(C)cc5)C[C@@]34CCN2C)c2c(c1O)[C@@]13CCN(C)[C@@H](C2)[C@H]1C[C@@H](OC)[C@H](NS(=O)(=O)c1ccc(C)cc1)C3 (stereo in doubt; 4b)	inhibition (INH)	-2.9

inhibition (INH) reading for COC1=C[C@@H]2[C@@H]3Cc4c(-c5cc(OC)c(O)c6c5C[C@H]5[C@H]7C=C(OC)C(=O)C[C@@]67CCN5C)cc(OC)c(O)c4[C@]2(CCN3C)CC1=O (stereo in doubt; 1a) : -2.9

* * *

Test system: RAW264.7
ASSAY OVERVIEW: Inhibition of LPS-induced nitric oxide production in mouse RAW264.7 cells at 25 uM after 24 hrs by Griess reaction relative to control
Format: functional
MEASUREMENT KIND: inhibition (INH)

The examples below pair each entry with its known result.
MOLECULE	EXPERIMENTAL VALUE
COC1=C[C@@H]2[C@@H]3Cc4c(-c5cc(OC)c(O)c6c5C[C@@H]5NCC[C@]67CC(=O)C(OC)=C[C@H]57)cc(OC)c(O)c4[C@]2(CCN3)CC1=O (stereo in doubt; 3a)	-9.3%
COc1cc(-c2cc(OC)c(O)c3c2C[C@H]2[C@H]4C[C@@H](OC)[C@H](NS(C)(=O)=O)C[C@@]34CCN2C)c2c(c1O)[C@@]13CCN(C)[C@@H](C2)[C@H]1C[C@@H](OC)[C@H](NS(C)(=O)=O)C3 (stereo in doubt; 5a)	-0.2%
COc1cc(-c2cc(OC)c(O)c3c2C[C@H]2[C@H]4C[C@@H](OC)[C@H](NS(=O)(=O)c5ccc(C)cc5)C[C@@]34CCN2C)c2c(c1O)[C@@]13CCN(C)[C@@H](C2)[C@H]1C[C@@H](OC)[C@H](NS(=O)(=O)c1ccc(C)cc1)C3 (stereo in doubt; 4a)	4.9%

API: the following record is the query input.
# inhibition (INH) measured on RAW264.7 for item COc1cc(-c2cc(OC)c(O)c3c2C[C@H]2[C@H]4C[C@@H](OC)[C@H](NS(C)(=O)=O)C[C@@]34CCN2C)c2c(c1O)[C@@]13CCN(C)[C@@H](C2)[C@H]1C[C@@H](OC)[C@H](NS(C)(=O)=O)C3 (stereo in doubt; 5b) = -8.4%

* * *

Test system: RAW264.7
ASSAY OVERVIEW: Cytotoxicity against mouse RAW264.7 cells after 24 hrs by MTT assay
Assay type: cell-based
EXPERIMENTAL CONDITIONS: Mus musculus, RAW264.7, 24 h
Kindly state IC50 for each of the entries shown.

The examples below pair each entry with its known result.
COMPOUND	IC50
COC1=C[C@@H]2[C@@H]3Cc4ccc(OC)c(O)c4[C@]2(CCN3C)CC1=O [SINOMENINE]	> 100 µM
COc1cc(-c2cc(OC)c(O)c3c2C[C@H]2[C@H]4C[C@@H](OC)[C@H](NS(C)(=O)=O)C[C@@]34CCN2C)c2c(c1O)[C@@]13CCN(C)[C@@H](C2)[C@H]1C[C@@H](OC)[C@H](NS(C)(=O)=O)C3 (stereo in doubt; 5a)	> 100 µM
COc1ccc2c(c1O)[C@]13CCCC[C@@H]1[C@H](C2)N(C)CC3	> 100 µM
COC1=C[C@@H]2[C@@H]3Cc4c(-c5cc(OC)c(O)c6c5C[C@H]5[C@H]7C=C(OC)C(=O)C[C@@]67CCN5C)cc(OC)c(O)c4[C@]2(CCN3C)CC1=O (stereo in doubt; 1a)	> 100 µM

API: the following record is the query input.
IC50 reading for COc1cc(-c2cc(OC)c(O)c3c2C[C@H]2[C@H]4Cc5nc6ccccc6nc5C[C@@]34CCN2C)c2c(c1O)[C@@]13CCN(C)[C@@H](C2)[C@H]1Cc1nc2ccccc2nc1C3 : 6.3 µM

* * *

Test system: RAW264.7
ASSAY OVERVIEW: Inhibition of LPS-induced nitric oxide production in mouse RAW264.7 cells at 50 uM after 24 hrs by Griess reaction relative to control
Type: functional
EXPERIMENTAL CONDITIONS: Mus musculus, RAW264.7, 24 h
Kindly state inhibition at 50 µM for each of the entries shown.
Answers are plain numbers, in %.

COMPOUND	MEASUREMENT KIND	EXPERIMENTAL VALUE
COC1=C[C@@H]2[C@@H]3Cc4ccc(OC)c(O)c4[C@]2(CCN3)CC1=O	inhibition at 50 µM	-0.8

Record inhibition at 50 µM for all entries; do not skip any.
1. COC1=C[C@@H]2[C@@H]3Cc4ccc(OC)c(O)c4[C@]2(CCN3C)CC1=O
2. COc1ccc2c(c1O)[C@@]13CCN(C)[C@@H](C2)[C@H]1C[C@@H](OC)[C@H](NS(=O)(=O)c1ccc(C)cc1)C3
3. COc1ccc2c(c1O)[C@@]13CCN(C)[C@@H](C2)[C@H]1C[C@@H](OC)[C@H](NS(C)(=O)=O)C3
4. COc1ccc2c(c1O)[C@]13CCCC[C@@H]1[C@H](C2)N(C)CC3

0.1
30
-3.7
28.1

Record inhibition at 50 µM for all entries; do not skip any.
1. COc1cc(-c2cc(OC)c(O)c3c2C[C@H]2[C@H]4C[C@@H](OC)[C@H](NS(=O)(=O)c5ccc(C)cc5)C[C@@]34CCN2C)c2c(c1O)[C@@]13CCN(C)[C@@H](C2)[C@H]1C[C@@H](OC)[C@H](NS(=O)(=O)c1ccc(C)cc1)C3 (stereo in doubt; 4b)
2. N=C(N)NN

[-2.2, 74.9]

* * *

System: RAW264.7
ASSAY OVERVIEW: Inhibition of LPS-induced nitric oxide production in mouse RAW264.7 cells at 50 uM after 24 hrs by Griess reaction relative to control
Type: functional
MEASUREMENT KIND: inhibition (INH) (%)
Numbers only, in %.

The examples below pair each entry with its known result.
MOLECULE	inhibition (INH) / %
COC1=C[C@@H]2[C@@H]3Cc4c(-c5cc(OC)c(O)c6c5C[C@H]5[C@H]7C=C(OC)C(=O)C[C@@]67CCN5C)cc(OC)c(O)c4[C@]2(CCN3C)CC1=O (stereo in doubt; 1b)	6.6
COC1=C[C@@H]2[C@@H]3Cc4c(-c5cc(OC)c(O)c6c5C[C@H]5[C@H]7C=C(OC)C(=O)C[C@@]67CCN5C)cc(OC)c(O)c4[C@]2(CCN3C)CC1=O (stereo in doubt; 1a)	15
COc1cc(-c2cc(OC)c(O)c3c2C[C@H]2[C@H]4C[C@@H](OC)[C@H](NS(C)(=O)=O)C[C@@]34CCN2C)c2c(c1O)[C@@]13CCN(C)[C@@H](C2)[C@H]1C[C@@H](OC)[C@H](NS(C)(=O)=O)C3 (stereo in doubt; 5b)	8.6
COc1cc(-c2cc(OC)c(O)c3c2C[C@H]2[C@H]4C[C@@H](OC)[C@H](NS(C)(=O)=O)C[C@@]34CCN2C)c2c(c1O)[C@@]13CCN(C)[C@@H](C2)[C@H]1C[C@@H](OC)[C@H](NS(C)(=O)=O)C3 (stereo in doubt; 5a)	0.2
COC1=C[C@@H]2[C@@H]3Cc4c(-c5cc(OC)c(O)c6c5C[C@@H]5NCC[C@]67CC(=O)C(OC)=C[C@H]57)cc(OC)c(O)c4[C@]2(CCN3)CC1=O (stereo in doubt; 3b)	-11

API: the following record is the query input.
# inhibition (INH) measured on RAW264.7 for item COC1=C[C@@H]2[C@@H]3Cc4c(-c5cc(OC)c(O)c6c5C[C@@H]5NCC[C@]67CC(=O)C(OC)=C[C@H]57)cc(OC)c(O)c4[C@]2(CCN3)CC1=O (stereo in doubt; 3a) = -12.6
